Reference source for all entries: the supplement of paper PMC12645437

Exercise: state measured log2 fold change of degron read counts for each of the sequences provided.
- assayed_system: T1, CRBN, Q96SW2;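 further: pooled lentiviral library of zinc finger degron-EGFP fusions in mCherry-positive Jurkat cells, FACS-sorted after compound exposure, with degron abundance counted by next-generation sequencing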
- T1 chain: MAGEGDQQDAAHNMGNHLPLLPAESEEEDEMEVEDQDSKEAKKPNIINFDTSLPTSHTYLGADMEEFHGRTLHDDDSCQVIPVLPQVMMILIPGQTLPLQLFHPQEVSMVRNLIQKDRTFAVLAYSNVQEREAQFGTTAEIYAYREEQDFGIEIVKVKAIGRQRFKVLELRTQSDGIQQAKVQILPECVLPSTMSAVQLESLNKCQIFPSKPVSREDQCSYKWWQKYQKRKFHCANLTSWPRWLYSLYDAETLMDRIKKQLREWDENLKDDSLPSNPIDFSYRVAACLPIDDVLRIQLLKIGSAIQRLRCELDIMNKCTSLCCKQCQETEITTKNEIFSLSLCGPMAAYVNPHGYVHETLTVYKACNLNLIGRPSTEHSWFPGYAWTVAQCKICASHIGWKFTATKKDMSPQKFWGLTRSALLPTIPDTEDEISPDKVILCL
- method_summary: log2 fold change of degron read counts, EGFP-low vs EGFP+ sorted cells (limma voom), compound-induced degradation; higher = more compound-induced degradation of the degron-EGFP fusion; degrons are variants of IKZF1/3 zinc finger 2; compound dose not given here
- conditions: Jurkat; 18 h; compound: compound 33 (diphenyl IMiD analogue)
The full ranking holds about 8,300 sequences; the median of “log2 fold change of degron read counts, EGFP-low vs EGFP+ sorted cells (limma voom), compound-induced degradation” is about -1.1, and the highest 2% start at about 3.2. The full list was thinned out, with the highest values kept by preference.
One number for each entry.

Example entries begin here.
FYCEVCGAMFTQKGNLLRHIKL [46F_47Y_49E_50V_52G_53A_54M_55F_67L_, Q9UKT9]    2.43
LDCNQCGFCCTQKGNLLRHIKL [46L_47D_49N_50Q_52G_53F_54C_55C_67L_, Q9UKT9]    -2.85
FQCEICGAAFTQKGNLLRHIKL [46F_47Q_49E_50I_52G_53A_54A_55F_67L_, Q9UKT9]    2.34
FYCEICGAAFTQKGNLLRHIKL [46F_47Y_49E_50I_52G_53A_54A_55F_67L_, Q9UKT9]    2.92
FSCEVCGAQFTQKGNLLRHIKL [46F_47S_49E_50V_52G_53A_54Q_55F_67L_, Q9UKT9]    1.32
FYCEVCGAQFTQKGNLLRHIKL [46F_47Y_49E_50V_52G_53A_54Q_55F_67L_, Q9UKT9]    2.99
FNCEICGAIFTQKGNLLRHIKL [46F_47N_49E_50I_52G_53A_54I_55F_67L_, Q9UKT9]    -0.467
FNCEVCGAMFTQKGNLLRHIKL [46F_47N_49E_50V_52G_53A_54M_55F_67L_, Q9UKT9]    -0.544

Batch: log2 fold change of degron read counts for all items listed.
1. FDCEICGAMFTQKGNLLRHIKL [46F_47D_49E_50I_52G_53A_54M_55F_67L_, Q9UKT9]
2. FRCEVCGAQFTQKGNLLRHIKL [46F_47R_49E_50V_52G_53A_54Q_55F_67L_, Q9UKT9]
3. FFCEICGAIFTQKGNLLRHIKL [46F_47F_49E_50I_52G_53A_54I_55F_67L_, Q9UKT9]
4. FRCEICGAIFTQKGNLLRHIKL [46F_47R_49E_50I_52G_53A_54I_55F_67L_, Q9UKT9]

1: -0.408; 2: 1.48; 3: 1.62; 4: 1.17
